Protocol details: NCI Yeast Anticancer Drug Screen. Data for the cln2 rad14 strain (AID 165);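 note: 0% = growth equal to vehicle treated cultures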
Study conditions: S. cerevisiae cln2 rad14 strain, at 50.0 µM, stronger effect = higher value
About 79,000 compounds went through this panel and 15% of them were active in at least one assay; those are over-represented in the sample as a whole.
Reported endpoint: growth inhibition (%)
Give a bare numeral; the unit % is implied.

Sample answers from the record:
Chemical string	Test result
Clc1ccc(C2OCCCO2)cc1	10.2
CCOC(=O)C(=NNc1cc(OC)c(Cl)cc1OC)C(=O)OCC	-25.4

// switching to the query compound
CC(C)C1=CC(=Nc2ccc(N(C)C)cc2)C=CC1=O has a reported growth inhibition of -29.2
